Collected IC50 values appear next to each entry.
Target: FAAH (Homo sapiens)
Sequence (O00519 1-579): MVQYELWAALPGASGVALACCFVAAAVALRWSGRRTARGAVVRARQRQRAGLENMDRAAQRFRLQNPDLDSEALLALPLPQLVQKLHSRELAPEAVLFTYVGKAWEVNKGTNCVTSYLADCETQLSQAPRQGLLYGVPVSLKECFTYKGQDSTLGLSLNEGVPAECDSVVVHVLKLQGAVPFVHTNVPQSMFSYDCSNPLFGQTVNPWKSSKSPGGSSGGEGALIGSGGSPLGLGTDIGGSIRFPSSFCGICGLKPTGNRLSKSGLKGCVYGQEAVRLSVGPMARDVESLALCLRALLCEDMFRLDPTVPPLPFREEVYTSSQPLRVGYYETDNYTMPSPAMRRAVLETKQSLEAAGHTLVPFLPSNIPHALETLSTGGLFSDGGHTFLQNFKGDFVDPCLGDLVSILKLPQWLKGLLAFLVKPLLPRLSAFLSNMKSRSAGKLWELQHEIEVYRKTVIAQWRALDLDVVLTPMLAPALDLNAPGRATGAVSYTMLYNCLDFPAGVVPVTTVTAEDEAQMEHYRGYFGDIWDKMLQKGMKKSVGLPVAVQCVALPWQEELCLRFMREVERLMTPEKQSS
Assay: Assay Method 1: FAAH assay, 3H-anandamide hydrolysis in homogenate of T84 cells or SK-N-MC cells transfected with human FAAH
Settings: average of results, > = solubility limit or highest concentration tested
parameter: IC50 (nM)

                    structure_smiles_string  relation_symbol  value
0  O=C(Nc1cccc2nonc12)N1CCC(Cc2ccc3ccccc3c2)CC1                =     59
1  O=C(Nc1noc2ccccc12)N1CCN(Cc2cccc(C#Cc3ccc(Cl)cc3Cl)c2)CC1                =    453
2  O=C(Nc1cnccn1)N1CCN(Cc2cccc(Oc3ccc(Br)cc3)c2)CC1                =      3
3  O=C(Nc1cccc2nsnc12)N1CCN(Cc2cccc(C#Cc3ccccc3)c2)CC1                =     45
4  O=C(Nc1noc2ccccc12)N1CCN(Cc2cccc(C#CC3CCCC3)c2)CC1                =     13
5   O=C(Nc1cnccn1)N1CCN(Cc2ccc3ccccc3c2)CC1                =    100
6  O=C(Nc1cnccn1)N1CCN(Cc2ccc3[nH]ccc3c2)CC1                >  10000
7  O=C(Nc1noc2ccccc12)N1CCN(Cc2ccc3[nH]ccc3c2)CC1                =   1800
8  O=C(Nc1cnccn1)N1CCN(Cc2cccc(Oc3ccc(OC(F)(F)F)cc3)c2)CC1                =     10

----------
Collected pIC50 values appear next to each entry.
Molecular target: FAAH (Homo sapiens)
Sequence (O00519 1-579): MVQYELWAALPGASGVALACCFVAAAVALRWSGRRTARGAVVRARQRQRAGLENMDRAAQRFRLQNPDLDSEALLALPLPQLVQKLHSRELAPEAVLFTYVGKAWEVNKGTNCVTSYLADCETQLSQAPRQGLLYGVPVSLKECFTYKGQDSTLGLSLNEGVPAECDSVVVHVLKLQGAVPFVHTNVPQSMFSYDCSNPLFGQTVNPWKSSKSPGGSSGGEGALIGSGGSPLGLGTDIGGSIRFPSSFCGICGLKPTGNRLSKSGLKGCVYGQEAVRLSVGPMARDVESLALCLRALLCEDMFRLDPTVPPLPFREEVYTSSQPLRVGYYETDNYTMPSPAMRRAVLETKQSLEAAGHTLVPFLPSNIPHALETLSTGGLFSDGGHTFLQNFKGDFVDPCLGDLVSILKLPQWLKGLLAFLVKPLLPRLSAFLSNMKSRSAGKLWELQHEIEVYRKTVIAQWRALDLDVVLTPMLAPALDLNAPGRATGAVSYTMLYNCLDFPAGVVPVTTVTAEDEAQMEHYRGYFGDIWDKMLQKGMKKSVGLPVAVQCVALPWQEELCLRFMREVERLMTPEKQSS
Test: Assay Method 1: FAAH assay, 3H-anandamide hydrolysis in homogenate of T84 cells or SK-N-MC cells transfected with human FAAH
Type: biochemical
Conditions: average of results, > = solubility limit or highest concentration tested
pIC50: −log10 of the molar value. Counter-ions that a name gives are not always drawn.
parameter: pIC50

                                   compound  value
0  O=C(Nc1cnccn1)N1CCN(Cc2cccc(Oc3cccc(C(F)(F)F)c3)c2)CC1 [Example 60, trifluoroacetic acid salt]   6.78
1  N#Cc1ccc(Oc2cccc(CN3CCN(C(=O)Nc4noc5ccccc45)CC3)c2)cc1   7.82
2  O=C(Nc1ccon1)N1CCN(Cc2ccc(Br)c(Br)c2)CC1   5.89
3  O=C(Nc1cnccn1)N1CCN(Cc2ccc(Br)c(F)c2)CC1   6.15

----------
Target: rat FAAH (Rattus norvegicus, UniProt P97612)
Sequence (P97612 1-579): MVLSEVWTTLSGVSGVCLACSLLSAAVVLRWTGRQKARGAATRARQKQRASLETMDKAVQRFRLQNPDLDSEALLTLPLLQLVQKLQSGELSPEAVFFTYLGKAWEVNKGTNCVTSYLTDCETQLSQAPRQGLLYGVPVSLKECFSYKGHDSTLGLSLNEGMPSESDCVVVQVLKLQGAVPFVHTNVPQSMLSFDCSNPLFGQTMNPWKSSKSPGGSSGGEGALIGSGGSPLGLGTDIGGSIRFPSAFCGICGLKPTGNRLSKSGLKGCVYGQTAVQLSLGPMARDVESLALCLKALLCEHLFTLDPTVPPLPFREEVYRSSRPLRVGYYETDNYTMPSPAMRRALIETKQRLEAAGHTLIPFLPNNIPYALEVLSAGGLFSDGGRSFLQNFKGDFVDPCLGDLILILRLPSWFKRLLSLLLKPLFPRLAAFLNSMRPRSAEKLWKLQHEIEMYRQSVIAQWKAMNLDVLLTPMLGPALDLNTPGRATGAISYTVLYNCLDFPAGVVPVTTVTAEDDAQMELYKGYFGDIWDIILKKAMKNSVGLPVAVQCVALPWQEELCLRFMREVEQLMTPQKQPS
Experiment: Assay Method 2: FAAH assay, 3H-anandamide hydrolysis in homogenate of SK-N-MC cells transfected with rat FAAH
Conditions: average of results, > = solubility limit or highest concentration tested
Where a name gives a salt, the structure may show the parent alone.
parameter: IC50

                                   compound  parameter    value
0  O=C(Nc1noc2ccccc12)N1CCN(Cc2cccc(Oc3ccc(F)c(C(F)(F)F)c3)c2)CC1 [Example 28, trifluoroacetic acid salt]       IC50    17 nM
1  O=C(Nc1nn[nH]n1)N1CCN(Cc2cccc(Oc3ccccc3Cl)c2)CC1       IC50  3700 nM
2  COc1ccccc1C#Cc1cccc(CN2CCN(C(=O)Nc3noc4ccccc34)CC2)c1       IC50   300 nM
3  O=C(Nc1ccon1)N1CCN(Cc2cccc(Oc3ccc4c(c3)OC(F)(F)O4)c2)CC1       IC50   870 nM
4  O=C(Nc1cnccn1)N1CCN(Cc2cccc(Oc3ccccc3Cl)c2)CC1       IC50  1600 nM
5  O=C(Nc1nn[nH]n1)N1CCN(Cc2cccc(Oc3ccc4c(c3)OC(F)(F)O4)c2)CC1       IC50    17 nM
6  O=C(Nc1ccc(Cl)nn1)N1CCC(Cc2ccc3ccccc3c2)CC1       IC50    57 nM
7  O=C(Nc1ccon1)N1CCN(Cc2ccc(F)c(Oc3ccccc3)c2)CC1 [Example 49, trifluoroacetic acid salt]       IC50   360 nM

----------
Collected IC50 values appear next to each entry.
Target: rat FAAH (Rattus norvegicus)
Sequence (P97612 1-579): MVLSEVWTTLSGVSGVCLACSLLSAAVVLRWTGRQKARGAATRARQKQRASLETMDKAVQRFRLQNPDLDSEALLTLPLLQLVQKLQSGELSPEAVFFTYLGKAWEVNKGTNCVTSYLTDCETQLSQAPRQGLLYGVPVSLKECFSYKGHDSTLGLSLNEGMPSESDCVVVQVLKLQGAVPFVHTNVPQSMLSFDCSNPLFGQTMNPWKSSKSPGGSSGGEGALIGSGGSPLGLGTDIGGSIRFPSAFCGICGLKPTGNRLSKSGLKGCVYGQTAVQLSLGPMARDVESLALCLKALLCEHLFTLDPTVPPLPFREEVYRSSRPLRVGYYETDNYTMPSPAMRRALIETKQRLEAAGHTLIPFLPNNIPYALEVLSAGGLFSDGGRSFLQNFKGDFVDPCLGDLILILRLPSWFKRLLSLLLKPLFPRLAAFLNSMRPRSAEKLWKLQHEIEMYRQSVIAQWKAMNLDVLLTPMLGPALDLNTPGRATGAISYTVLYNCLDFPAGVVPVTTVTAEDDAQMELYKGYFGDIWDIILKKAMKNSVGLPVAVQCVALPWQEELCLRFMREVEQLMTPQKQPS
Test: Assay Method 2: FAAH assay, 3H-anandamide hydrolysis in homogenate of SK-N-MC cells transfected with rat FAAH
Details: average of results, > = solubility limit or highest concentration tested
Where a name gives a salt, the structure may show the parent alone.
parameter: IC50 (nM)

In [3]: df
Out[3]:
                                    molecule  relation_symbol  value
 0  O=C(Nc1noc2ccccc12)N1CCN(Cc2cccc(Oc3ccc(SC(F)(F)F)cc3)c2)CC1 [Example 130]                =      4
 1  O=C(Nc1cnccn1)N1CCN(Cc2cccc(Oc3ccc(Cl)c(Cl)c3)c2)CC1 [Example 59, trifluoroacetic acid salt]                =     22
 2  O=C(Nc1ccc(Cl)nn1)N1CCC(Cc2ccc(F)cc2)CC1 [Example 23]                =   5000
 3  O=C(Nc1noc2ccccc12)N1CCN(Cc2cccc(C#Cc3cccc4ccccc34)c2)CC1 [Example 86]                =    580
 4  N#Cc1ccc(Oc2cccc(CN3CCN(C(=O)Nc4cnccn4)CC3)c2)cc1C(F)(F)F [Example 236]                =   8000
 5  O=C(Nc1ccsc1)N1CCN(Cc2ccc3c(c2)OC(F)(F)O3)CC1 [Example 8]                =    290
 6  O=C(Nc1ccc(Cl)nn1)N1CCN(Cc2cccc(Oc3ccc(Cl)cc3)c2)CC1 [Example 42, trifluoroacetic acid salt]                =     18
 7  O=C(Nc1cccnn1)N1CCN(Cc2cccc(C#Cc3ccccc3Cl)c2)CC1 [Example 79]                =    320
 8  O=C(Nc1cnccn1)N1CCN(Cc2cccc(OC(F)(F)F)c2)CC1 [Example 61, trifluoroacetic acid salt]                =   7000
 9  O=C(Nc1ccon1)N1CCC(Cc2cccc(C(F)(F)F)c2)CC1 [Example 26]                =   1000
10  O=C(Nc1nnn[nH]1)N1CCN(Cc2ccc3ccccc3c2)CC1 [Example 176]                =    450
11  N#Cc1cccc(C#Cc2cccc(CN3CCN(C(=O)Nc4noc5ccccc45)CC3)c2)c1 [Example 88]                =     65
12  O=C(Nc1ccon1)N1CCN(Cc2ccc3c(c2)OCO3)CC1 [Example 143]                >  10000
13  O=C(Nc1nn[nH]n1)N1CCN(Cc2cccc(OCc3ccccc3)c2)CC1 [Example 179]                =   1200
14  O=C(Nc1ccon1)N1CCN(Cc2cccc(Oc3ccc(S(=O)(=O)C(F)(F)F)cc3)c2)CC1 [Example 158]                =    150
15  O=C(Nc1cnccn1)N1CCN(Cc2cccc(Oc3ccc(OCC(F)(F)F)cc3)c2)CC1 [Example 214]                =     90
16  O=C(Nc1ccon1)N1CCN(Cc2cccc(Oc3cccc(OC(F)(F)F)c3)c2)CC1 [Example 159]                =    300
17  O=C(Nc1cccnn1)N1CCN(Cc2ccc(Br)c(Br)c2)CC1 [Example 195]                =    310
18  O=C(Nc1noc2ccccc12)N1CCN(Cc2cccc(Oc3ccc(Br)cc3)c2)CC1 [Example 32, trifluoroacetic acid salt]                =      4
19  O=C(Nc1nn[nH]n1)N1CCN(Cc2ccc(Br)c(F)c2)CC1 [Example 168]                =    480
20  N#Cc1cccc(Oc2cccc(CN3CCN(C(=O)Nc4cnccn4)CC3)c2)c1 [Example 235]                =   6000
21  O=C(Nc1nnn[nH]1)N1CCN(Cc2cccc(Oc3ccc(SC(F)(F)F)cc3)c2)CC1 [Example 172]                =     10
22  O=C(Nc1cccnn1)N1CCN(Cc2ccc(Cl)c(Cl)c2)CC1 [Example 199]                =    590
23  O=C(Nc1nnn[nH]1)N1CCN(Cc2ccc3c(c2)OC(F)(F)O3)CC1 [Example 3, trifluoroacetic acid salt]                =   9000
24  O=C(Nc1cccc2ncccc12)N1CCC(Cc2ccc3ccccc3c2)CC1 [Example 20, trifluoroacetic acid salt]                =    250
25  COC(=O)c1ccccc1C#Cc1cccc(CN2CCN(C(=O)Nc3noc4ccccc34)CC2)c1 [Example 87]                =    480
26  O=C(Nc1nnn[nH]1)N1CCN(Cc2cccc(Oc3ccc(C(F)(F)F)cc3)c2)CC1 [Example 171]                =     35
27  O=C(Nc1noc2ccccc12)N1CCN(Cc2ccc(OCc3ccccc3)cc2)CC1 [Example 112]                =    270
28  N#Cc1ccc(Oc2cccc(CN3CCN(C(=O)Nc4cnccn4)CC3)c2)cc1 [Example 229]                =   3000
29  O=C(Nc1cnccn1)N1CCN(Cc2cccc(Oc3ccc(F)c(F)c3)c2)CC1 [Example 231]                =   3600
30  O=C(Nc1noc2ccccc12)N1CCN(Cc2cccc(C#Cc3cc(Cl)ccc3Cl)c2)CC1 [Example 84]                =    295
31  O=C(Nc1ccc(Cl)nn1)N1CCN(Cc2ccc(F)c(Oc3ccccc3)c2)CC1 [Example 45, trifluoroacetic acid salt]                =    410
